system: K562; assay: NCI tumour cell line growth inhibition, 48 h
Active and inactive are the calls of the source. Cut-off read from the data, not from the text of the source: active = GI50 up to about 1.1 µM and inactive = higher.
Outcome codes: active, inactive

molecule: CN(/N=C/c1ccc(Cl)cc1)C1=NCCCCN1
assigned.label: inactive

molecule: CC1(C)C2CCC3=C(CCC4(C)C5C[C@](C)(C(=O)O)CC[C@]5(C)CC[C@]34C)[C@@]2(C)CC[C@@H]1O (some centres not stated)
assigned.label: inactive

molecule: CN(C)CCS/C(=N\c1ccccc1)N1CCCCC1
assigned.label: inactive

molecule: CC(=O)O[C@H]1C#C/C=C\C#CC[C@@H]2C(=O)N(C(=O)OC(C)(C)C)[C@@H]12
assigned.label: inactive

molecule: COc1c(-c2nc3ccc(N4CCN(C)CC4)cc3[nH]2)cc(OC)c2[nH]c(COC(C)=O)nc12
assigned.label: inactive

molecule: C1CSCCCSCCSCCCSC1
assigned.label: inactive

molecule: COc1ccc2cc(CNCCOCCOCCNCc3ccc4cc(OC)ccc4c3)ccc2c1
assigned.label: active

molecule: COc1ccc(N[C@H](C[S+]([O-])c2ccc(C)cc2)C(F)(F)C(F)(F)F)cc1 (some centres not stated)
assigned.label: inactive

molecule: C/C(CC(=O)Nc1ccc(C)cc1)=N\NC(N)=S
assigned.label: inactive

molecule: C=CCC1=CC2(OC)C(=O)C(OC)(OC)C1C1C(OC)(OC)C(=O)C(OC)=CC12CC=C (configuration not stated)
assigned.label: inactive

molecule: Cc1ccc(/C=C/C(=O)c2ccc(Cl)c(Cl)c2)cc1
assigned.label: inactive

molecule: CCN1C(=O)N(C)C(O)c2c1nc1ccccn1c2=O (configuration not stated)
assigned.label: inactive

molecule: CC(=O)c1ccccc1NCC(=O)Nn1cnc2ccc(S(=O)(=O)Nc3ccccc3C(C)=O)cc2c1=O
assigned.label: inactive

molecule: CCOC(=O)C1=C(C)N(NC(=O)Nc2ccccc2)C2(N)N(NC(=O)Nc3ccccc3)C(C)=C(C(=O)OCC)C12C(=O)OCC (configuration not stated)
assigned.label: inactive

molecule: Cc1ccc(C2SCC(=O)N2c2ccc(-n3c(-c4ccccc4)nc4ccccc4c3=O)cc2)cc1 (configuration not stated)
assigned.label: inactive

molecule: COC(C)(C)[C@@H]1CCCN1C1=C(C)C(=O)OC1
assigned.label: inactive

molecule: CN(C)CCNc1nc(-c2cccs2)cc(-c2cccs2)n1
assigned.label: inactive

====

test system: SN12C; assay: NCI tumour cell line growth inhibition, 48 h
Active and inactive are the calls of the source. Rule as the data show it: active = GI50 up to about 1.1 µM and inactive = higher.

compound: C[C@]12CC[C@@H]3c4cc(OCC(F)(F)F)c(O)cc4/C(=N/O)C[C@H]3[C@@H]1CC[C@@H]2O
measurement.target: SN12C
GI50: 0.0873 µM (active)
--
compound: CN(C)c1ccc(/C=C(\NC(=O)c2ccccc2)c2nc3ccccc3c(=O)o2)cc1
measurement.target: SN12C
GI50: > 100 µM (inactive)
--
compound: CCOC(=O)c1ccc(Nc2nc3ccc(C(F)(F)F)cc3nc2C(=O)OCC)cc1
measurement.target: SN12C
GI50: > 100 µM (inactive)
--
compound: CCCCCc1cc2cc3c(c(O)c2c(=O)[nH]1)C1(CCC3)C(=O)c2c(O)c3c(c(O)c2C1=O)C(=O)C(OC)=CC3=O (stereo not drawn)
measurement.target: SN12C
GI50: 1.01 µM (active)
--
compound: O=C(O)C(Cc1c[nH]c2ccccc12)C(=O)NO (stereo not drawn)
measurement.target: SN12C
GI50: > 100 µM (inactive)
--
compound: CC(=O)Nc1ccc(C2=N/C(=C\c3ccc(Cl)cc3)C(=O)O2)cc1
measurement.target: SN12C
GI50: 28.2 µM (inactive)
--
compound: CC(C)(C)CC(C)(C)c1cc2c(O)c(c1)Cc1cc(C(C)(C)CC(C)(C)C)cc(c1O)Cc1cc(C(C)(C)CC(C)(C)C)cc(c1O)Cc1cc(C(C)(C)CC(C)(C)C)cc(c1O)C2
measurement.target: SN12C
GI50: > 100 µM (inactive)
--
compound: CCOC(=O)C1=C(C)N2CCOC2(C)C(C(=O)OC)C1c1cccc(Cl)c1 (stereo not drawn)
measurement.target: SN12C
GI50: > 100 µM (inactive)
--
compound: CN(C)CCCN1C(=S)N(CCCN(C)C)c2c3cc(O)ccc3nc3c([N+](=O)[O-])ccc1c23
measurement.target: SN12C
GI50: 2.65 µM (inactive)
--
compound: Nc1nnc(O)c2c1c(I)cn2C1OC(CO)C(O)C1O (stereo not drawn)
measurement.target: SN12C
GI50: 0.284 µM (active)
--
compound: CC(=O)OC1C/C(C)=C/CCC(C)/C=C/C2(C)CCC(C(C)(C)O)C12 (stereo not drawn)
measurement.target: SN12C
GI50: 32.1 µM (inactive)
--
compound: CCCCCCC(C)CCCCCCCCCCC(=O)O (stereo not drawn)
measurement.target: SN12C
GI50: > 100 µM (inactive)
--
compound: CCOC(=O)C1C(=O)C(C(=O)OCC)C(c2ccccc2)N(C)C1c1ccccc1 (stereo not drawn)
measurement.target: SN12C
GI50: > 100 µM (inactive)
--
compound: COc1ccc(N[C@H](C[S+]([O-])c2ccc(C)cc2)C(F)(F)C(F)(F)F)cc1 (stereo partly drawn)
measurement.target: SN12C
GI50: > 100 µM (inactive)
--
compound: CCOC(=O)C1=C(C)N(NC(=O)Nc2ccccc2)C2(N)N(NC(=O)Nc3ccccc3)C(C)=C(C(=O)OCC)C12C(=O)OCC (stereo not drawn)
measurement.target: SN12C
GI50: 1.66 µM (inactive)
--
compound: CC(C)c1cccc(=O)c(O)c1
measurement.target: SN12C
GI50: 5.51 µM (inactive)
--
compound: CC(=O)OCC1OC(n2c3c(cc(C#N)c2=S)CCC3)C(OC(C)=O)C(OC(C)=O)C1OC(C)=O (stereo not drawn)
measurement.target: SN12C
GI50: > 100 µM (inactive)
--
compound: COC(=O)[C@@H]1[C@H](O)[C@H](C)[C@H](O)[C@@](C)(O)/C=C\C=C(\C)C(=O)Nc2c(C)c(OC(C)=O)c3c(c2O)C(=O)C(C)=C2OCOC(=C23)/C(C)=C/[C@@](C)(O)[C@H](O)[C@@H](C)[C@H]1OC(C)=O
measurement.target: SN12C
GI50: 43.6 µM (inactive)
--
compound: C1CCN(c2nc(=[N+]3CCCCC3)ss2)CC1
measurement.target: SN12C
GI50: > 100 µM (inactive)
--
compound: CCOC(=O)/C(C#N)=C/c1ccc(CO)o1
measurement.target: SN12C
GI50: > 100 µM (inactive)
--
compound: CCOC(=N)CC(=O)Nc1ccccc1
measurement.target: SN12C
GI50: > 46.5 µM (inactive)
--
compound: O=C1CC2CC3OC3[C@H]3c4cc5c(cc4C(=O)N1C23)OCO5 (stereo partly drawn)
measurement.target: SN12C
GI50: > 100 µM (inactive)
--
compound: CCc1cccc(C)c1NC(=S)NC(=O)c1ccccc1C(=O)NC(=S)Nc1c(C)cccc1CC
measurement.target: SN12C
GI50: > 100 µM (inactive)
--
compound: COC(C)(C)[C@@H]1CCCN1C1=C(C)C(=O)OC1
measurement.target: SN12C
GI50: > 100 µM (inactive)
--
compound: Cc1ccc2nc(-c3ccccc3)c(N=O)n2c1
measurement.target: SN12C
GI50: 20.2 µM (inactive)
--
compound: N=C(CCl)NC1CN2CCC1CC2 (stereo not drawn)
measurement.target: SN12C
GI50: 66.7 µM (inactive)
--
compound: O=C1CCCC2=C1CC1=C(CCCC1=O)N2c1ccc([N+](=O)[O-])cc1
measurement.target: SN12C
GI50: > 100 µM (inactive)
--
compound: O=C1C=Cc2c(-c3ccccc3)oc3cccc1c23
measurement.target: SN12C
GI50: 9.82 µM (inactive)

====

test system: SK-OV-3; assay: NCI tumour cell line growth inhibition, 48 h
Active and inactive are the calls of the source. Cut-off read from the data, not from the text of the source: active = GI50 up to about 1.1 µM and inactive = higher.
quantity.name: GI50

mol.smiles: N=C(N)N/N=C/c1cc(Cl)cc(Cl)c1O
measured: > 100 µM (inactive)
--
mol.smiles: O=[N+]([O-])c1nccn1CCCNc1c2ccccc2[n+]([O-])c2ccccc12
measured: > 100 µM (inactive)
--
mol.smiles: COc1c(O)c(OC)c2oc(-c3ccc(O)c(O)c3)c(OC)c(=O)c2c1O
measured: 15.9 µM (inactive)
--
mol.smiles: NNC(=O)/C(=C/c1cccc([N+](=O)[O-])c1)NC(=O)c1ccccc1
measured: > 100 µM (inactive)

====

system: SK-MEL-5; assay: NCI tumour cell line growth inhibition, 48 h
The source made the active and inactive calls. No stated cut-off is given here; in the data, active = GI50 up to about 1.1 µM and inactive = higher.
quantity.name: GI50

molecule: CCOC(=O)c1nc2ccc(C(F)(F)F)cc2nc1Nc1ccc(OC)c(OC)c1
measured: > 100 µM (inactive)
//
molecule: Cc1cc(Br)ccc1/N=N/c1c(C)nn(-c2ccccc2)c1-c1ccccc1
measured: 29 µM (inactive)
//
molecule: N#CCc1c(-c2ccccc2)n(S(=O)(=O)c2ccccc2)c2ccccc12
measured: > 100 µM (inactive)
//
molecule: CC(=O)N(CCc1ccccc1)C(C)(C#N)c1ccccc1 (stereo not given)
measured: > 100 µM (inactive)
//
molecule: O=C1CC(c2c(-c3ccccc3)[nH]c3ccccc23)C(=O)N1c1ccccc1 (stereo not given)
measured: 56.8 µM (inactive)

The origin of these recorded values is ChEMBL document CHEMBL1201862.
